# Tested on: OVCAR-8
# ASSAY COMMENT: NCI tumour cell line growth inhibition, 48 h
The source made the active and inactive calls. No stated cut-off is given here; in the data, active = GI50 up to about 1.1 µM and inactive = higher.
Classes used: active, inactive

[[record]]
compound = "C#CCOCn1cc(C)c(=O)[nH]c1=O"
assigned_label = "inactive"

[[record]]
compound = "O=C(N/N=C\\c1cccc2ccccc12)Nc1cccc2ccccc12"
assigned_label = "inactive"

[[record]]
compound = "COc1ccc(NC(=O)NNS(=O)(=O)c2ccc(C)cc2)cc1"
assigned_label = "inactive"

[[record]]
compound = "Cn1cc(C(=O)c2nccc3c2cnc2ccccc23)ccc1=O"
assigned_label = "inactive"

[[record]]
compound = "C=CC(=O)NCCSCCCOC1(C(=O)O)CC(O)C(NC(C)=O)C(C(O)C(O)CO)O1 (centres undefined)"
assigned_label = "inactive"

[[record]]
compound = "CCN(CCN(CC)C(=O)NC)C(=O)NC"
assigned_label = "inactive"

[[record]]
compound = "N#CC1Nc2ccccc2[C@@H](O)C1O (some centres undefined)"
assigned_label = "inactive"

[[record]]
compound = "O=C(CSCC(=O)N/N=C/c1cccs1)N/N=C/c1cccs1"
assigned_label = "inactive"

[[record]]
compound = "Brc1ccc(-c2ccc(-c3ccc(-c4ccc(Br)s4)s3)s2)s1"
assigned_label = "inactive"

[[record]]
compound = "NS(=O)(=O)c1ccc(NC(NC(=O)C(C(F)(F)F)C(F)(F)F)(C(F)(F)F)C(F)(F)F)cc1"
assigned_label = "inactive"

[[record]]
compound = "COc1cc(/C=C/C(=O)Oc2ccc(NC(C)=O)cc2)ccc1C(=O)OCc1ccccc1"
assigned_label = "inactive"

[[record]]
compound = "CN(c1nc(=[N+](C)C)ss1)C1CCCCC1"
assigned_label = "inactive"

[[record]]
compound = "O=C(O)c1nn(-c2ccccc2)nc1-c1nn(-c2ccccc2)nc1C(=O)O"
assigned_label = "inactive"

[[record]]
compound = "CCCC1CC(=O)NC(=O)C1C(=O)OC(C)(C)C (centres undefined)"
assigned_label = "inactive"

[[record]]
compound = "NC1=NS(=O)(=O)Nc2nc(-c3ccc(Cl)cc3)c(-c3ccc(Cl)cc3)nc21"
assigned_label = "inactive"

[[record]]
compound = "CC1C2CC(CC2N)C1(C)C (centres undefined)"
assigned_label = "inactive"

[[record]]
compound = "C=CCNC1=NC(=O)C(CC(=O)Nc2cccc(Cl)c2)S1 (centres undefined)"
assigned_label = "inactive"

[[record]]
compound = "C(=N\\c1ccc2c(c1)Cc1ccccc1-2)/c1ccccn1"
assigned_label = "inactive"

[[record]]
compound = "COC1=CC(=O)c2ccccc2C1(CCC=C(C)C)C1=NC(C)(C)CO1 (centres undefined)"
assigned_label = "inactive"

[[record]]
compound = "CCOC(=O)c1c(O)cn2c1[nH]c1cccc3cccc2c31"
assigned_label = "inactive"

[[record]]
compound = "Brc1sc(Br)c2c1[C@H](Br)C[C@@H]2Br"
assigned_label = "inactive"

[[record]]
compound = "CCCC(N)C(=O)c1ccccc1 (centres undefined)"
assigned_label = "inactive"

[[record]]
compound = "Cn1c(=O)c2c(ncn2CCCCn2ccnc2[N+](=O)[O-])n(C)c1=O"
assigned_label = "inactive"

[[record]]
compound = "S=C(NCc1ccccn1)N/N=C/c1ccccn1"
assigned_label = "active"


----------
# System: IGROV-1
# ASSAY COMMENT: NCI tumour cell line growth inhibition, 48 h
The source made the active and inactive calls. No stated cut-off is given here; in the data, active = GI50 up to about 1.1 µM and inactive = higher. Where a SMILES comes first, the peptide text is derived from it. [ ]: non-standard residue; d: D form. The star is where a group is joined. ξ: configuration not given here. ξF = NC(Cc1ccccc1)C(=O)O; Cbz = O=C(OCc1ccccc1)*; Aib = CC(C)(N)C(=O)O
Classes used: label 1 for active, label 0 for inactive

[[record]]
molecule = "c1ccc(C2C(=P(c3ccccc3)(c3ccccc3)c3ccccc3)P=PC2[P+](c2ccccc2)(c2ccccc2)c2ccccc2)cc1.c1ccc([B-](c2ccccc2)(c2ccccc2)c2ccccc2)cc1 (stereo not given)"
tgt = "IGROV-1"
assigned_label = "label 1"

[[record]]
molecule = "CC1=C(C(=O)Nc2c(C)cccc2C)C(c2ccc3c(c2)OCO3)C(C(=O)Nc2c(C)cccc2C)=C(C)N1"
tgt = "IGROV-1"
assigned_label = "label 0"

[[record]]
molecule = "O=C1CCC(=O)N1CNc1cccc(NCN2C(=O)CCC2=O)c1"
tgt = "IGROV-1"
assigned_label = "label 0"

[[record]]
molecule = "COC(=O)c1c(CC#N)cccc1CC#N"
tgt = "IGROV-1"
assigned_label = "label 0"

[[record]]
molecule = "COC(=O)C(C)(C)NC(=O)C(Cc1ccccc1)NC(=O)C(C)(C)NC(=O)OCc1ccccc1 (stereo not given) (Cbz-[Aib]-[ξF]-[Aib]-OMe)"
tgt = "IGROV-1"
assigned_label = "label 0"


----------
Recorded GI50 for the following compounds
# Test system: SK-MEL-2
# ASSAY COMMENT: NCI tumour cell line growth inhibition, 48 h
Calls of active or inactive are those of the source. Cut-off read from the data, not from the text of the source: active = GI50 up to about 1.1 µM and inactive = higher. Non-standard residues stand in square brackets, D forms with d. Residues, ends and D or L forms follow the SMILES beside them. ξ: configuration not given here. *: point of attachment. NMeF = CN[C@@H](Cc1ccccc1)C(=O)O; ξNMeV = CNC(C(=O)O)C(C)C; Boc = CC(C)(C)OC(=O)*; OBn = c1ccc(CO*)cc1
MEASURE: GI50

[[record]]
compound = "O=C1NC(=O)C(CCC(=O)c2cccc3ccccc23)C(=O)N1"
tgt = "SK-MEL-2"
value_observed = "> 100 µM (inactive)"

[[record]]
compound = "C=C(CO)CC(O)c1cc(OC)ccc1OC (stereo not given)"
tgt = "SK-MEL-2"
value_observed = "> 100 µM (inactive)"

[[record]]
compound = "C=CCCCCCC(O)C(O)C/C=C\\C/C=C\\CC (stereo not given)"
tgt = "SK-MEL-2"
value_observed = "> 18.8 µM (inactive)"

[[record]]
compound = "O=c1c(O)c(-c2ccc(O)cc2O)oc2cc(O)cc(O)c12 [MORIN]"
tgt = "SK-MEL-2"
value_observed = "> 100 µM (inactive)"

[[record]]
compound = "CCOC(=O)C1(Cc2ccccc2)Cc2cc3c(cc2C1=O)CCC3 (stereo not given)"
tgt = "SK-MEL-2"
value_observed = "> 100 µM (inactive)"

[[record]]
compound = "CC(=O)O[C@H]1[C@H](OC(=O)CC(C)(O)CC(=O)O)C[C@]2(C)C3=C(CCC2C1(C)C)[C@]1(C)CC[C@H]([C@H]2CC[C@H](C(C)(C)O)OC2O)[C@@]1(C)[C@@H](O)C3 (stereo not given in full)"
tgt = "SK-MEL-2"
value_observed = "18.8 µM (inactive)"

[[record]]
compound = "O=[N+]([O-])c1ccc(Nc2nc3ccccc3s2)cc1"
tgt = "SK-MEL-2"
value_observed = "25.5 µM (inactive)"

[[record]]
compound = "NS(=O)(=O)c1ccc(NC(NC(=O)C(C(F)(F)F)C(F)(F)F)(C(F)(F)F)C(F)(F)F)cc1"
tgt = "SK-MEL-2"
value_observed = "> 100 µM (inactive)"

[[record]]
compound = "Cc1ccc(C)c(NC(=O)CC/C(=N\\NC(=O)C(N)=O)C(C)C(=O)c2ccc(O)cc2)c1 (stereo not given)"
tgt = "SK-MEL-2"
value_observed = "> 100 µM (inactive)"

[[record]]
compound = "Cc1cc(O)nc2c3c(ccc12)OC(C)(C)C=C3"
tgt = "SK-MEL-2"
value_observed = "10.2 µM (inactive)"

[[record]]
compound = "COc1cc(/C=C/C(=O)Oc2ccc(NC(C)=O)cc2)ccc1C(=O)OCc1ccccc1"
tgt = "SK-MEL-2"
value_observed = "53.1 µM (inactive)"

[[record]]
compound = "CC(C)C(C(=O)N1CCC[C@@H]1C(=O)OCc1ccccc1)N(C)C(=O)C(C(C)C)N(C)C(=O)[C@H](Cc1ccccc1)N(C)C(=O)[C@H](NC(=O)OC(C)(C)C)C(C)C (stereo not given in full) (Boc-[dV][NMeF][ξNMeV][ξNMeV][dP]-OBn)"
tgt = "SK-MEL-2"
value_observed = "> 100 µM (inactive)"

[[record]]
compound = "CC(=O)NC(CCCOC(C)=O)C(=O)NC(CCCOC(C)=O)C(=O)NC(CCCOC(C)=O)C(=O)NC(Cc1ccc([N+](=O)[O-])cc1)C(=O)NCC(=O)OCc1ccccc1 (stereo not given)"
tgt = "SK-MEL-2"
value_observed = "> 100 µM (inactive)"

[[record]]
compound = "O=C1c2sc(-c3ccc(Cl)cc3)cc2-n2cccc21"
tgt = "SK-MEL-2"
value_observed = "> 100 µM (inactive)"

[[record]]
compound = "COC(=O)C1C2CCCN2OC1(C)CO (stereo not given)"
tgt = "SK-MEL-2"
value_observed = "> 100 µM (inactive)"


----------
# Test system: Malme-3M
# ASSAY COMMENT: NCI tumour cell line growth inhibition, 48 h
The source made the active and inactive calls. Cut-off read from the data, not from the text of the source: active = GI50 up to about 1.1 µM and inactive = higher.
Classes used: active, inactive

[[record]]
compound = "COc1ccc(NC2=NCCO2)c2ccccc12"
assigned_label = "inactive"

[[record]]
compound = "COc1ccc2c(c1)CCCc1c-2nc2ccccc2c1N"
assigned_label = "inactive"

[[record]]
compound = "[N-]=[N+]=NCc1nc(N)c2c3c(sc2n1)CCCC3"
assigned_label = "inactive"

[[record]]
compound = "C1COCCN1.S=C(S)N1CCOCC1"
assigned_label = "inactive"

[[record]]
compound = "CCOC(=O)C1=C(Nc2ccccc2)OC/C1=N\\NC(=O)Cc1ccccc1"
assigned_label = "inactive"

[[record]]
compound = "O=C1c2cc([N+](=O)[O-])sc2C(=O)c2cc([N+](=O)[O-])sc21"
assigned_label = "active"

[[record]]
compound = "CC1CN=C(N(C(=O)Nc2ccc(Cl)c(Cl)c2)c2ccccc2)S1 (stereo unspecified)"
assigned_label = "inactive"

[[record]]
compound = "CCCc1c(C(=O)OCC)[nH]c(-c2ccc(-c3[nH]c(C(=O)OCC)c(CCC)c3C(=O)OCC)o2)c1C(=O)OCC"
assigned_label = "inactive"

[[record]]
compound = "CCCCCCCCCCCCCCCCOCC(O)CO (stereo unspecified)"
assigned_label = "inactive"

[[record]]
compound = "CC[C@@]1(O)C(=O)OCc2c1cc1n(c2=O)Cc2c-1nc1ccccc1c2/C=N\\NC(=O)C(N)=O"
assigned_label = "inactive"

[[record]]
compound = "O=C(N/N=C\\c1cccc2ccccc12)Nc1cccc2ccccc12"
assigned_label = "inactive"

